biological target: ENPP1 (Homo sapiens); experiment: Indirect quantitation of 2',3'-cGAMP hydrolysis (AMP-Glo Assay kit); format: biochemical; conditions: cGAMP substrate; Ki from IC50 by Cheng-Prusoff; read-out: ENPP1 Inhibition -cGAMP: Ki
pKi: −log10 of the molar value.
Known pKi of a selection of molecules

# Smiles entry, pKi
measured = [
    ("COc1ccc2c(Oc3ccc(NS(N)(=O)=O)c(C#N)c3)ccnc2c1", "> 7.00"),
    ("COc1ccc2c(Oc3ccc(N(Cc4ccccc4)S(N)(=O)=O)cc3)ccnc2c1", "6.00 to 7.00"),
    ("COc1ccc2c(Oc3ccc(NS(N)(=O)=O)cc3OC)ccnc2c1", "< 6.00"),
    ("COc1cnc2c(Oc3ccc(NS(N)(=O)=O)cc3)ccnc2c1", "< 6.00"),
    ("COc1ccc2nccc(-c3ccc4c(c3)CN(S(N)(=O)=O)CC4)c2c1", "> 7.00"),
    ("COc1ccc2c(Oc3ccc(NS(N)(=O)=O)cn3)ccnc2c1", "> 7.00"),
    ("COc1cc2ncc(C3CC3)c(-c3ccc4c(c3)CN(S(N)(=O)=O)CC4)c2cc1OC", "> 7.00"),
    ("Cn1cnc2ncnc(N3CCC(CCNS(N)(=O)=O)CC3)c21", "> 7.00"),
    ("COc1ccc2ncc(C#N)c(N3CCC4(CC3)CCN(S(N)(=O)=O)C4)c2c1", "> 7.00"),
]

====

Known Ki of a selection of compounds
target: ENPP1 (Homo sapiens, UniProt P22413); assay: Indirect quantitation of 2',3'-cGAMP hydrolysis (AMP-Glo Assay kit); format: biochemical; conditions: cGAMP substrate; Ki from IC50 by Cheng-Prusoff; read-out: ENPP1 Inhibition -cGAMP: Ki
Sequence (P22413 whole entry): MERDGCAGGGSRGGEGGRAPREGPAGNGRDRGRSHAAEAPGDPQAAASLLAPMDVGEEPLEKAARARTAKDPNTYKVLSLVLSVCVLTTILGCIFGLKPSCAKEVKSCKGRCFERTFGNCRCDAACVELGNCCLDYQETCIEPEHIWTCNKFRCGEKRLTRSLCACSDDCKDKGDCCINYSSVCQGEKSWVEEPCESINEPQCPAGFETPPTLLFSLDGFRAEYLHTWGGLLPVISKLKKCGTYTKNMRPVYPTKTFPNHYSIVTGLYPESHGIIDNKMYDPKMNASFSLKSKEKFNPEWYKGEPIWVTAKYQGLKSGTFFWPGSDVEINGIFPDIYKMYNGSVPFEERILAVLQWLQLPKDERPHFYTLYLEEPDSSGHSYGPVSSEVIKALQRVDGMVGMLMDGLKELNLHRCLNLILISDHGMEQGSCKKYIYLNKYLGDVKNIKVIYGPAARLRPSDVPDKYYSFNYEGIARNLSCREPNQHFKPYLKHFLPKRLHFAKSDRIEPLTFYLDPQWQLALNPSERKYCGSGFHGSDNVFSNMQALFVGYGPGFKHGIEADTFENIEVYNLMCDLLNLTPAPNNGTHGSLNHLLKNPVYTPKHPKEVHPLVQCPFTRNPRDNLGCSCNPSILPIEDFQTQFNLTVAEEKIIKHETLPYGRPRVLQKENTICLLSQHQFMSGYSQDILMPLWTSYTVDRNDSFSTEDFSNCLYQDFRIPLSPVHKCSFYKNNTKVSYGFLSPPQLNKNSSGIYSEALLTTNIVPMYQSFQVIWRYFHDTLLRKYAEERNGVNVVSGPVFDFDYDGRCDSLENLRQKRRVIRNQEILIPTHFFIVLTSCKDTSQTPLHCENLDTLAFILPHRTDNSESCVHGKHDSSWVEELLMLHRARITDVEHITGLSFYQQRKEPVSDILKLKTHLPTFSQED

# Smiles entry, Ki
measured = [
    ("COc1cc2nccc(N3CCC(CCNS(=O)(=O)NCC(F)(F)F)CC3)c2cc1OC", "> 1 µM"),
    ("COc1cc2ncc(C#N)c(-c3ccc(S(N)(=O)=O)cc3)c2cc1OC", "< 0.1 µM"),
    ("COc1cc2ncc(C#N)c(N3CCC4(CC3)CCN(S(N)(=O)=O)C4)c2cc1F", "< 0.1 µM"),
    ("NS(=O)(=O)NCCC1CCN(c2ncnc3nc[nH]c23)CC1", "> 1 µM"),
    ("COc1cc(F)c2c(N3CCc4cc(NS(N)(=O)=O)ccc43)ccnc2c1", "0.1 to 1 µM"),
    ("COc1cc2ncnc(N3CCC(CCNS(=O)(=O)C(F)F)CC3)c2cc1OC", "< 0.1 µM"),
]

====

biological target: ENPP1 (Homo sapiens, UniProt P22413); test: Indirect quantitation of 2',3'-cGAMP hydrolysis (AMP-Glo Assay kit); format: biochemical; conditions: cGAMP substrate; Ki from IC50 by Cheng-Prusoff; read-out: ENPP1 Inhibition -cGAMP: Ki

# Molecule, Ki
rows = [
    ("COc1ccc2c(=O)n(Cc3ccc(S(N)(=O)=O)cc3)cnc2c1 [Example 400]", "> 1000 nM"),
    ("COc1ccc2c(Oc3ccc(NS(N)(=O)=O)c(OC)c3)ccnc2c1 [Example 78]", "< 100 nM"),
    ("COc1cc2ncnc(N3CCC(CCN(O)C=O)CC3)c2cc1OC [Example 219]", "< 100 nM"),
    ("COc1cc2c(N3CCC(CCNS(N)(=O)=O)CC3)ncnc2cn1 [Example 189]", "100 to 1000 nM"),
    ("COc1cc2ncc(C#N)c(-c3ccc(CNS(N)(=O)=O)cc3)c2cc1OC [Example 241]", "< 100 nM"),
    ("COc1ccc(S(=O)(=O)N2CCN(CCO)CC2)cc1OC [Example 340]", "> 1000 nM"),
    ("NS(=O)(=O)NCCC1CCN(c2ccnc(-c3cccnc3)n2)CC1 [Example 14]", "> 1000 nM"),
    ("COc1ccc2ncnc(N3CCC(CCNS(N)(=O)=O)CC3)c2c1 [Example 199]", "< 100 nM"),
    ("COc1ccc2c(-c3ccc4c(c3)CN(S(N)(=O)=O)C4)ccnc2c1 [Example 402]", "< 100 nM"),
]
